Origin of measurements: patent US12570659B2

Target: UniProt Q9NWZ3
Sequence (Q9NWZ3 whole entry, species assumed): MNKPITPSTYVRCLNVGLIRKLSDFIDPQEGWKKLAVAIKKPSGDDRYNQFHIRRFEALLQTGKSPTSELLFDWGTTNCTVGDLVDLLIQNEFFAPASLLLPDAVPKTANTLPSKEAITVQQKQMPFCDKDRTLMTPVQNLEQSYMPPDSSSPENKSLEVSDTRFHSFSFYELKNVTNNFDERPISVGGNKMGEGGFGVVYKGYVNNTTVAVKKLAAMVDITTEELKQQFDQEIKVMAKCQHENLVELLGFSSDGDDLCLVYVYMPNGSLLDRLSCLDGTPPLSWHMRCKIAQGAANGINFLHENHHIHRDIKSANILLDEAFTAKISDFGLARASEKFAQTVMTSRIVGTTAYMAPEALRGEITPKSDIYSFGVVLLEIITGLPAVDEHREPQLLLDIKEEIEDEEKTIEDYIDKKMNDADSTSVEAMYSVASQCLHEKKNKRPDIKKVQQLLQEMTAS
Sorting guide: entries reporting IC50 beneath 30 nM go in the MET pile, the rest go in the NOT MET pile.

Consider the worked cases shown below.
>  <Compound>
CC(C)Nc1c(C(=O)NC[C@@H](F)C(C)(C)O)cnc2cc(-c3cccc(N)c3)nn12 [Example 157]

>  <Class Label>
NOT MET

$$$$
>  <Compound>
COc1cc(-c2cc3ncc(C(=O)NC[C@@H](F)C(C)(C)O)c(NC(C)C)n3n2)ccn1 [Example 148]

>  <Class Label>
NOT MET

$$$$
>  <Compound>
CC(C)Nc1c(C(=O)NC[C@@H](F)C(C)(C)O)cnn2cc(-c3ccncc3)cc12 [Example 5]

>  <Class Label>
MET

$$$$
>  <Compound>
CC(C)Nc1c(C(=O)NCCC(C)(C)O)cnn2cc(-c3ccncc3)cc12 [Example 62]

>  <Class Label>
MET

$$$$
>  <Compound>
CC(C)Nc1c(C(=O)NC[C@@H](F)C(C)(C)O)cnn2cc(-c3ccccn3)cc12 [Example 16]

>  <Class Label>
MET

$$$$

Now turn to the next compound.
Inquiry: Please state whether IC50 is below 30 nM for CC(C)Nc1c(C(=O)NC[C@@H](F)C(C)(C)O)cnn2cc(-c3cnoc3)cc12 [Example 44]
Reply text: NOT MET
